Overview of reported growth inhibition across a group of compounds:
experimental-details: NCI Yeast Anticancer Drug Screen. Data for the mlh1 rad18 strain (AID 175)
cond: S. cerevisiae mlh1 rad18 strain growth inhibition; at 50.0 µM; stronger effect = higher value
The panel holds about 79,000 compounds, 15% with a hit somewhere; the sample as a whole holds those more often.

{"compound": "Cc1cc(=O)oc2nc(-c3ccccc3)[nH]c(=O)c12", "growth inhibition [%]": 18.3}
{"compound": "N#CCCOCCNCCSC(=O)c1ccccc1", "growth inhibition [%]": 4.25}
{"compound": "O=[N+]([O-])c1ccc(S(=O)(=O)N/N=C/c2cccc3ccccc23)cc1", "growth inhibition [%]": 19.8}
{"compound": "OC1CCC(O)[C@H]2[C@@H]1[C@@H]1S[C@H]2c2ccccc21 (stereo partly specified)", "growth inhibition [%]": -1.85}
{"compound": "CCOC(=O)c1nc2cc(C(F)(F)F)ccc2nc1Nc1ccc(OC)c(OC)c1", "growth inhibition [%]": -14}
{"compound": "CCCCCCCCCCCCCCCCCCC(CO)CO", "growth inhibition [%]": 1.8}
{"compound": "COC(=O)Nc1cn2nc(C)sc2n1", "growth inhibition [%]": -6.95}
{"compound": "c1ccc(C[S][Sn]([c]2ccccc2)([c]2ccccc2)[c]2ccccc2)cc1", "growth inhibition [%]": 93}
{"compound": "COC1=C(C)C(=O)C2=C(C1=O)C1C3CC4=C(C(=O)C(OC)=C(C)C4=O)C(CNC(=O)C(C)O)N3C(C#N)C(C2)N1C (stereo unspecified)", "growth inhibition [%]": 41.5}
{"compound": "CCOC(=O)NN(C(=O)OCC)C(C)(C)C(C)=O", "growth inhibition [%]": 12.1}
{"compound": "CC(C)(C)C1COC(c2ccccc2)(c2ccccc2)C1 (stereo unspecified)", "growth inhibition [%]": -15.3}

---

experimental-details: NCI Yeast Anticancer Drug Screen. Data for the mec2-1 strain (AID 157)
cond: S. cerevisiae mec2-1 strain, at 50.0 µM, stronger effect = higher value
This is part of a sample that, as a whole, favours compounds with a hit. Of some 79,000 tested, about 15% had one in any assay.

{"compound": "CSC(=NNC(N)=O)SC", "growth inhibition, %": -2.8}
{"compound": "NC(=O)c1[nH]c(/N=N/c2nc[nH]c2C(N)=O)nc1N", "growth inhibition, %": 21.6}
{"compound": "CN(C)CCN1CC2C3CCCCC3=C3CCCCC3C2C1 (stereo not drawn)", "growth inhibition, %": 10.1}
{"compound": "COC(=O)CCN1CCN(CCO)CC1C (stereo not drawn)", "growth inhibition, %": -39.8}
{"compound": "COC1OC(OC)c2cc([N+](=O)[O-])ccc21 (stereo not drawn)", "growth inhibition, %": 17.3}
{"compound": "O=S(=O)(SC1=NCCN1)c1cccc2ccccc12", "growth inhibition, %": 3.5}
{"compound": "CC12C=C[C@]3(CC[C@@H]4[C@@](C)(CO)CCC[C@]4(C)C3CC1)C2 (stereo partly drawn)", "growth inhibition, %": -2.7}
{"compound": "C[N+](C)(C)c1cc[c]([Sn]([c]2ccc([N+](C)(C)C)cc2)([c]2ccc([N+](C)(C)C)cc2)[c]2ccc([N+](C)(C)C)cc2)cc1", "growth inhibition, %": -5.75}
{"compound": "CCOC(C)C(=O)C=O (stereo not drawn)", "growth inhibition, %": -13.6}
{"compound": "COC1=CC(=O)C(C2OC(=O)C(Cl)=C2Cl)=CC1=O (stereo not drawn)", "growth inhibition, %": 7.3}
{"compound": "Nc1ccc(I)cc1", "growth inhibition, %": -4.05}
{"compound": "COc1cc(CC2COC(=O)[C@@H]2Cc2ccc(O)c(OC)c2)ccc1O (stereo partly drawn)", "growth inhibition, %": -18.9}
{"compound": "CC(C)C1CSC2N1C(=O)C2(OCc1ccccc1)C1CC1 (stereo not drawn)", "growth inhibition, %": -22.4}
{"compound": "COC(=O)C(=O)C(C(=O)C=C(C)C)C(=O)C(=O)Nc1cc(C(F)(F)F)ccc1Cl (stereo not drawn)", "growth inhibition, %": -1.4}
{"compound": "CCSC(=S)S(=O)(=O)c1ccc(C)cc1", "growth inhibition, %": 93.1}
{"compound": "O=c1c(O)c(-c2ccc(O)cc2O)oc2cc(O)cc(O)c12", "growth inhibition, %": -29.2}
{"compound": "CCN(CC)CCCC(C)n1c(-c2ccc(OC)cc2)nc2cc(Cl)ccc21 (stereo not drawn)", "growth inhibition, %": 8.5}
{"compound": "Cc1ccc(CO)cc1C", "growth inhibition, %": -8.5}
{"compound": "Nc1ccc(CCc2ccc3ccccc3n2)cc1", "growth inhibition, %": -9.25}
{"compound": "CC(C)=CCSC(N)N", "growth inhibition, %": 21.1}
{"compound": "CCOC(=O)c1cc(CC)sc1N", "growth inhibition, %": -9.75}
{"compound": "O=C(O)CN=CC(O)C(O)C(O)C(O)CO (stereo not drawn)", "growth inhibition, %": -3.8}
{"compound": "CCCc1cccc[n+]1CC(=O)c1ccccc1", "growth inhibition, %": 11.1}
{"compound": "Nc1nc2ccc3ccccc3c2c(=O)[nH]1", "growth inhibition, %": 2.35}
{"compound": "O=C(O)CCSc1nc2c(=O)[nH][nH]c(=O)c2n1Cc1ccccc1", "growth inhibition, %": -13.2}
{"compound": "C(=Nc1ccc2ccccc2c1)c1cccs1", "growth inhibition, %": -3.2}
{"compound": "Clc1cccc2nc(-c3ccccn3)n(CCc3ccncc3)c12", "growth inhibition, %": 51.1}
{"compound": "CN(C)CCCn1c2ccccc2c2cnccc21", "growth inhibition, %": -10.9}
{"compound": "CC(=O)c1c(C)cc(C(C)(C)C)cc1C", "growth inhibition, %": -1.1}
{"compound": "Nc1nc(N)nc(-c2ccccc2NC(=O)c2ccccc2N)n1", "growth inhibition, %": 14.3}
{"compound": "CN1CC(=O)N(C(=O)c2ccccc2)C1=N", "growth inhibition, %": -17.2}
{"compound": "CC(NC(=O)OCc1ccccc1)NC(=O)C(CC(=O)OC(C)(C)C)NC(=O)OC(C)(C)C (stereo not drawn)", "growth inhibition, %": -40.5}
{"compound": "COc1ccc2nc(NC(=O)C(=O)NNC(=O)c3ccncc3)sc2c1", "growth inhibition, %": -24}
{"compound": "O=C1CSC(c2cccs2)N1CCN1C(=O)CSC1c1cccs1 (stereo not drawn)", "growth inhibition, %": -2.1}
{"compound": "CN(C)CC1CCCC/C1=N/O (stereo not drawn)", "growth inhibition, %": -6.75}
{"compound": "COC1CCC(/C(C#N)=C/C2CCC(N(C)C)CC2)CC1 (stereo not drawn)", "growth inhibition, %": 16.2}
{"compound": "COC1C(O)=C2C(=O)OC(C)(O)/C=C/C=C\\C=C/C=C/C(c3ccccc3)NC(=O)/C=C/C=C/C=C/C=C/C2(C)C1O (stereo not drawn)", "growth inhibition, %": -14.1}
{"compound": "O/N=C1/COC(C(F)(F)F)(C(F)(F)F)C1", "growth inhibition, %": -25.4}
{"compound": "CCn1cc(C(=O)O)c(=O)c2ccc(-c3ccncc3)cc21", "growth inhibition, %": 8.7}
{"compound": "CC(=O)c1nc2ccccc2n1CC(=O)c1ccc([N+](=O)[O-])cc1", "growth inhibition, %": 8.7}
{"compound": "COc1cccc(C2c3cc4c(cc3OC(C)(O)C2C)OCO4)c1OC (stereo not drawn)", "growth inhibition, %": 4.05}
{"compound": "Cc1ccc(C(=O)Nc2ccc(CP(=O)(O)O)cc2CP(=O)(O)O)cc1NC(=O)Nc1cc(C(=O)Nc2ccc(CP(=O)(O)O)cc2CP(=O)(O)O)ccc1C", "growth inhibition, %": -5.45}
{"compound": "COC1=C(NCCc2ccccc2)C(=O)C(OC)=C(NCCc2ccccc2)C1=O", "growth inhibition, %": -4.7}
{"compound": "O=c1ccc2cc3c(cc2[nH]1)OCO3", "growth inhibition, %": -1.25}
{"compound": "CN(C)CC1CCCCC1O (stereo not drawn)", "growth inhibition, %": -5.85}
{"compound": "COc1cc2c(c(OC)c1OC)-c1cccc(=O)cc1C(NC(C)=O)CC2 (stereo not drawn)", "growth inhibition, %": -14.2}
{"compound": "CCN(CC)c1nc(N(CC)CC)nc(N(CC)CC)n1", "growth inhibition, %": 14.8}
{"compound": "C[N+](C)(C)CC(=O)N/N=C(\\C(=O)Nc1ccc(Cl)cc1)C1C(=O)N(c2ccccc2)N=C1N (stereo not drawn)", "growth inhibition, %": 1.25}

---

experimental-details: NCI Yeast Anticancer Drug Screen. Data for the bub3 strain (AID 167)
cond: S. cerevisiae bub3 mutant strain, at 50.0 µM, stronger effect = higher value
About 79,000 compounds went through this panel and 15% of them were active in at least one assay; those are over-represented in the sample as a whole.

{"compound": "N#C/C(=C\\c1ccc(F)cc1)C(=O)O", "unit-of-measurement": "%", "growth inhibition": 8.5}
{"compound": "CCOc1nc(SCC)nc2c1cnn2-c1ccccc1", "unit-of-measurement": "%", "growth inhibition": -1.2}
{"compound": "CC(C)n1cnc2c(=O)[nH]c(=O)[nH]c21", "unit-of-measurement": "%", "growth inhibition": -5.2}
{"compound": "N#CCc1nc(-c2ccccc2)n[nH]1", "unit-of-measurement": "%", "growth inhibition": 4.5}
{"compound": "c1ccc(CC2CCCC(Cc3ccccc3)N2)cc1 (configuration not stated)", "unit-of-measurement": "%", "growth inhibition": 16.1}
{"compound": "CCOC(=O)CC1CC2c3cc(OC)c(OC)cc3CCN2CC1CC (configuration not stated)", "unit-of-measurement": "%", "growth inhibition": 1.95}
{"compound": "Nc1c(S(=O)(=O)O)ccc2c1C(=O)c1ccccc1C2=O", "unit-of-measurement": "%", "growth inhibition": 49.1}
